quantity kind: melting point

Q. Returns the measured melting point for the input compound. Input: COc1cc(O)c(C#N)c2cc(-c3ccc(O)cc3)oc12
A. 286 to 288 °C

Q. Returns the measured melting point for the input compound. Input: O=c1cc(O)c(=O)c2ccc(O)cc2[nH]1
A. > 350 °C

Q. Returns the measured melting point for the input compound. Input: O=C(O)CCc1cn(Cc2ccc(Cl)cc2Cl)c2ccccc12
A. 134 to 136 °C

Q. Returns the measured melting point for the input compound. Input: CCOCc1nc2c(N)nc3cc(-c4ccc(-c5ccc6c(c5)nc(N)c5nc(COCC)n(CC(C)(C)O)c56)cc4)ccc3c2n1CC(C)(C)O
A. 325 to 328 °C

Q. Returns the measured melting point for the input compound. Input: CCOC(Cc1ccc(OCCN2CCOc3ccccc32)cc1)C(N)=O (centres undefined)
A. 107 to 109 °C

Q. Returns the measured melting point for the input compound. Input: O=c1cc(O)c2ccc(F)cc2o1
A. 229 to 230 °C

Q. Returns the measured melting point for the input compound. Input: O=C(O)Cc1ccnc2c(NC(=O)c3c(Cl)cccc3Cl)cccc12
A. 228 to 230 °C

Q. Returns the measured melting point for the input compound. Input: CN1C(=O)CC2(CC(=O)N(Cc3ccccc3)C2)C1=O (centres undefined)
A. 157 to 158 °C

Q. Returns the measured melting point for the input compound. Input: Cc1cccc(NC(=O)NC2CN(C(=O)CN3CCN(C)CC3)c3ccccc3N(CC(=O)c3ccccc3C)C2=O)c1 (centres undefined)
A. 245 to 247 °C
